Tested on: Enterobacter sakazakii
Test: Expected efficacy of anti-bacterial agents against various bacteria (Tables 5 and 6)
Conditions: Gram: neg
measure: Efficacy of various antibiotic agents

Any idea what Efficacy of various antibiotic agents was measured for `NC[C@H]1O[C@H](O[C@H]2[C@H](O)[C@@H](O[C@H]3O[C@H](CO)[C@@H](O)[C@H](N)[C@H]3O)[C@H](N)C[C@@H]2N)[C@H](N)C[C@@H]1O` ? yes

Any idea what Efficacy of various antibiotic agents was measured for `CN[C@H](CC(C)C)C(=O)N[C@H]1C(=O)N[C@@H](CC(N)=O)C(=O)N[C@H]2C(=O)N[C@H]3C(=O)N[C@H](C(=O)N[C@H](C(=O)O)c4cc(O)cc(O)c4-c4cc3ccc4O)[C@H](O)c3ccc(c(Cl)c3)Oc3cc2cc(c3O[C@@H]2O[C@H](CO)[C@@H](O)[C@H](O)[C@H]2O[C@H]2C[C@](C)(N)[C@H](O)[C@H](C)O2)Oc2ccc(cc2Cl)[C@H]1O` ? no
